pIC50 reference
target under test: Phosphatidylinositol 3-kinase catalytic subunit type 3 (Homo sapiens, UniProt Q8NEB9)
Sequence (Q8NEB9 whole entry): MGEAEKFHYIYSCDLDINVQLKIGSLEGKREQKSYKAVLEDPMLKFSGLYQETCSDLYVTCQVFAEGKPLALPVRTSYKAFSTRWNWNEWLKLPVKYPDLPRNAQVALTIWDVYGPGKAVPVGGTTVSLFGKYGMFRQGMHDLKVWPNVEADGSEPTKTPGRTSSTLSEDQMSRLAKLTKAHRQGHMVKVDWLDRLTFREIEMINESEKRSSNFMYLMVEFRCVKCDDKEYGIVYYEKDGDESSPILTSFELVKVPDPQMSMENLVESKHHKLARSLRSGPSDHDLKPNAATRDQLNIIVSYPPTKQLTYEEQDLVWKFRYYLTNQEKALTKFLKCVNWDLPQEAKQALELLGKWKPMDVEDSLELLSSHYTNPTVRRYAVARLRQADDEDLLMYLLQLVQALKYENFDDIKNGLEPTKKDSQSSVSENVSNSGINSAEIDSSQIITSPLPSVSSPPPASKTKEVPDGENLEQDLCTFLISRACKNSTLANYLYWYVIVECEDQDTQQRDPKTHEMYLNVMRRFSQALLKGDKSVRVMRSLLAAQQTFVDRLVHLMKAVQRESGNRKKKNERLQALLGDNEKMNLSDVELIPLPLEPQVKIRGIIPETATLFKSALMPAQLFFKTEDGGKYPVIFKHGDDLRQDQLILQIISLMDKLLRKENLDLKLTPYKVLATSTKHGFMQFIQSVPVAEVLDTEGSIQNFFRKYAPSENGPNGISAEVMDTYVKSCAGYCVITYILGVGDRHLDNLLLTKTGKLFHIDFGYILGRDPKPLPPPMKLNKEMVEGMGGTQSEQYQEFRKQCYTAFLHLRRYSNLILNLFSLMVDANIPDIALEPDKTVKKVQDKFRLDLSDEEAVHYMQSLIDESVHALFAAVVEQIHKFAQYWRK
method description: Kinase Glo Luminescent Kinase Assay: PI 3-Kinase Alpha (A), Pb 3-Kinase Beta (B), Vps34 (C), PI 4-Kinase Beta (D):The luminescence-based ATP detection reagent KinaseGlo was obtained from Promega, (Cat. No. V6714, Lot No. 236161) through Catalys, Wallisellen, Switzerland. L-alpha-phosphatidylinositol (PI, liver, bovine) was obtained from Avanti Polar Lipid (Cat. No. 840042C, Lot#LPI-274), Phosphatidylinositol-4,5-bisphosphate (PIP(4,5)2) was also obtained from Avanti Polar Lipid (Cat. No. 840046X). L-α-Phosphatidylserine (PS) was obtained from Avanti Polar Lipid (Cat. No. 840032C), n-Octylglucoside from Avanti Polar Lipid (Cat. No. 10634425001). Luminescence is a well established readout to determine ATP concentrations and can thus be used to follow the activity of many kinases regardless of their substrate. The Kinase Glo Luminescent Kinase Assay (Promega, Madison/WI, USA) is a homogeneous HTS method of measuring kinase activity by quantifying the amount of ATP remaining in solution following a kinase reaction.
pIC50: −log10 of the molar value.
measure: pIC50

compound="Cc1ccc(S(=O)(=O)NC2CC3(CC(O)C3)C2)cc1-c1cncc(-c2cn(C)nc2C)n1 (centres undefined)" value_observed=5.03
compound=Cc1cc(-c2cncc(-c3cc(S(=O)(=O)NC[C@H]4C[C@@H](O)C4)ccc3C)n2)n(C)n1 value_observed=5.61
compound=Cc1ccc(S(=O)(=O)N[C@H]2CC[C@H](O)CC2)cc1-c1cncc(-c2csc(CN3CCOCC3)c2)n1 value_observed=5.07
compound=Cc1ccc(S(=O)(=O)NC[C@H]2C[C@@H](O)C2)cc1-c1cncc(-c2cn(C)nc2C)n1 value_observed=5.36

All figures here come from ChEMBL document CHEMBL5726701.
